B1: TMEM175 (parent)
chain: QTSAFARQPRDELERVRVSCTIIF

- Variants of: B1
- MEASUREMENT_NOTES: protein stability index of a GFP-peptide fusion (GPS, HEK-293T) (PSI 1-6); higher = more stable;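 also: lentivirally expressed fusions sorted by FACS into six bins by GFP to DsRed ratio, PSI derived from sequencing read proportions per bin multiplied by bin number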
- DETAILS: c terminus: a fixed tail appended
# label = t if protein stability index >= 2 else f

{"MUTATION_LABEL": "I22G", "ASSIGNED_LABEL": "t"}
{"MUTATION_LABEL": "L13M", "ASSIGNED_LABEL": "t"}
{"MUTATION_LABEL": "R10K", "ASSIGNED_LABEL": "t"}
{"MUTATION_LABEL": "T21K", "ASSIGNED_LABEL": "f"}
{"MUTATION_LABEL": "S3I", "ASSIGNED_LABEL": "t"}
{"MUTATION_LABEL": "A6K", "ASSIGNED_LABEL": "t"}
{"MUTATION_LABEL": "V16I", "ASSIGNED_LABEL": "t"}
{"MUTATION_LABEL": "A4N", "ASSIGNED_LABEL": "f"}
{"MUTATION_LABEL": "E14Y", "ASSIGNED_LABEL": "t"}
{"MUTATION_LABEL": "R7V", "ASSIGNED_LABEL": "f"}
{"MUTATION_LABEL": "T2L", "ASSIGNED_LABEL": "f"}
{"MUTATION_LABEL": "Q8W", "ASSIGNED_LABEL": "t"}
{"MUTATION_LABEL": "Q8V", "ASSIGNED_LABEL": "f"}
{"MUTATION_LABEL": "R10T", "ASSIGNED_LABEL": "t"}
{"MUTATION_LABEL": "C20A", "ASSIGNED_LABEL": "t"}
{"MUTATION_LABEL": "R10N", "ASSIGNED_LABEL": "t"}
{"MUTATION_LABEL": "I22V", "ASSIGNED_LABEL": "t"}
{"MUTATION_LABEL": "E12A", "ASSIGNED_LABEL": "t"}
{"MUTATION_LABEL": "D11V", "ASSIGNED_LABEL": "t"}
{"MUTATION_LABEL": "F5C", "ASSIGNED_LABEL": "t"}
{"MUTATION_LABEL": "R15G", "ASSIGNED_LABEL": "t"}
{"MUTATION_LABEL": "A6L", "ASSIGNED_LABEL": "f"}
{"MUTATION_LABEL": "E14Q", "ASSIGNED_LABEL": "t"}
{"MUTATION_LABEL": "S19I", "ASSIGNED_LABEL": "f"}
{"MUTATION_LABEL": "Q1P", "ASSIGNED_LABEL": "t"}
{"MUTATION_LABEL": "R7Q", "ASSIGNED_LABEL": "f"}
{"MUTATION_LABEL": "T2F", "ASSIGNED_LABEL": "t"}
{"MUTATION_LABEL": "S19N", "ASSIGNED_LABEL": "t"}
{"MUTATION_LABEL": "D11C", "ASSIGNED_LABEL": "t"}
{"MUTATION_LABEL": "Q1L", "ASSIGNED_LABEL": "f"}
{"MUTATION_LABEL": "I23G", "ASSIGNED_LABEL": "t"}
{"MUTATION_LABEL": "Q1N", "ASSIGNED_LABEL": "t"}
{"MUTATION_LABEL": "L13E", "ASSIGNED_LABEL": "f"}
{"MUTATION_LABEL": "V18P", "ASSIGNED_LABEL": "t"}
{"MUTATION_LABEL": "V18N", "ASSIGNED_LABEL": "t"}
{"MUTATION_LABEL": "Q8C", "ASSIGNED_LABEL": "t"}
{"MUTATION_LABEL": "I22F", "ASSIGNED_LABEL": "f"}
{"MUTATION_LABEL": "T2H", "ASSIGNED_LABEL": "t"}
{"MUTATION_LABEL": "I23K", "ASSIGNED_LABEL": "t"}
{"MUTATION_LABEL": "I23A", "ASSIGNED_LABEL": "t"}
{"MUTATION_LABEL": "D11Q", "ASSIGNED_LABEL": "t"}
{"MUTATION_LABEL": "P9I", "ASSIGNED_LABEL": "t"}
{"MUTATION_LABEL": "A4V", "ASSIGNED_LABEL": "f"}
{"MUTATION_LABEL": "F24G", "ASSIGNED_LABEL": "t"}
{"MUTATION_LABEL": "I23H", "ASSIGNED_LABEL": "t"}
{"MUTATION_LABEL": "E12S", "ASSIGNED_LABEL": "t"}
{"MUTATION_LABEL": "S3R", "ASSIGNED_LABEL": "f"}
{"MUTATION_LABEL": "S19H", "ASSIGNED_LABEL": "t"}
{"MUTATION_LABEL": "P9Y", "ASSIGNED_LABEL": "t"}
{"MUTATION_LABEL": "Q1A", "ASSIGNED_LABEL": "t"}
{"MUTATION_LABEL": "A4F", "ASSIGNED_LABEL": "f"}
{"MUTATION_LABEL": "V18F", "ASSIGNED_LABEL": "t"}
{"MUTATION_LABEL": "A4M", "ASSIGNED_LABEL": "t"}
